System: Mv4-11
Test: cell viability relative to DMSO control (bortezomib = 0%); higher = less growth inhibition
Conditions: 10 nM; 72 h
Structures can show the parent of a compound that is named as a salt.
I'd be grateful if you could share measured cell viability for these entries.
The answer is to be given in %; state only the numeric part.

# value lookup — system Mv4-11, readout cell viability, item "COc1cc(N2CCC(N3CCN(C)CC3)CC2)ccc1Nc1ncc(Cl)c(Nc2ccccc2P(C)(C)=O)n1"
108

# value lookup — system Mv4-11, readout cell viability, item "Nc1[nH]nc2nnc(-c3c(-c4ccccc4)nn4ccccc34)cc12"
109

# value lookup — system Mv4-11, readout cell viability, item "Cn1c(=O)n(-c2ccc(C(C)(C)C#N)cc2)c2c3cc(-c4cnc5ccccc5c4)ccc3ncc21"
102

# value lookup — system Mv4-11, readout cell viability, item NCCNS(=O)(=O)c1cccc2cnccc12 [H-9 (hydrochloride)]
111

# value lookup — system Mv4-11, readout cell viability, item "CC1(C)CC[C@]2(C(=O)O)CC[C@]3(C)C(=CC[C@@H]4[C@@]5(C)CC[C@H](O[C@@H]6O[C@H](C(=O)O)[C@@H](O)[C@H](O[C@@H]7OC[C@@H](O)[C@H](O)[C@H]7O)[C@H]6O)C(C)(C)[C@@H]5CC[C@]43C)[C@@H]2C1"
106

# value lookup — system Mv4-11, readout cell viability, item "CC[C@@](C)(Nc1ccnc(-c2c[nH]c3ncccc23)n1)C(=O)NCC(F)(F)F"
89.3

# value lookup — system Mv4-11, readout cell viability, item "CNC(=O)c1ccccc1Sc1ccc2c(/C=C/c3ccccn3)n[nH]c2c1"
118

# value lookup — system Mv4-11, readout cell viability, item "O=C1NC(=O)/C(=C/c2ccc3c(c2)OC(F)(F)O3)S1"
104

# value lookup — system Mv4-11, readout cell viability, item "CC[C@@H]1C(=O)N(C)c2cnc(Nc3ccc(C(=O)N[C@H]4CC[C@H](N5CCN(CC6CC6)CC5)CC4)cc3OC)nc2N1C(C)C"
117

# value lookup — system Mv4-11, readout cell viability, item "O=c1c(O)c(-c2cc(O)c(O)c(O)c2)oc2cc(O)cc(O)c12"
114

# value lookup — system Mv4-11, readout cell viability, item "COc1ccc(-c2cnc3c(-c4cccc5ncccc45)cnn3c2)cc1"
103

# value lookup — system Mv4-11, readout cell viability, item O=C(Nc1ccccc1C(=O)NC1CCCCNC1=O)c1cc2ccccc2s1 (configuration not stated)
103

# value lookup — system Mv4-11, readout cell viability, item COc1cc(Nc2ncc(F)c(Nc3ccc4c(n3)N(COP(=O)(O)O)C(=O)C(C)(C)O4)n2)cc(OC)c1OC [R788 (Fostamatinib) Disodium]
96.4

# value lookup — system Mv4-11, readout cell viability, item "CC(CCc1ccccn1)(CCc1ccccn1)C(=O)c1ccccc1"
109

# value lookup — system Mv4-11, readout cell viability, item O=S(=O)(c1cccc2cnccc12)N1CCCNCC1 [Fasudil]
104

# value lookup — system Mv4-11, readout cell viability, item O=C(Nc1cccc(Cl)c1)Nc1ncc(CCNc2ncnc3ccsc23)s1 [SNS-314 Mesylate]
84.7

# value lookup — system Mv4-11, readout cell viability, item "COc1cc(OC)c(C=C2C(=O)Nc3ccccc32)c(OC)c1"
100

* * *

System: Mv4-11
Assay: cell viability relative to DMSO control (bortezomib = 0%); higher = less growth inhibition
Conditions: 10 nM; 72 h
Where a name gives a salt, the structure may show the parent alone.
propertyMeasured: cell viability (%)
The answer is to be given in %; state only the numeric part.

What does the record list as cell viability for "COc1cc(OC2CCN(C)CC2)ccc1Nc1ncc2c(n1)n(C1CCCC1)c(=O)n2C" ?
104

What does the record list as cell viability for "CCOc1cc(C(=O)N2CCC(N3CCN(C)CC3)CC2)ccc1Nc1ncc2c(n1)N(C1CCCC1)c1ccccc1C(=O)N2C" ?
96.1

What does the record list as cell viability for "C[C@@H](Oc1cc(-c2cnn(C3CCNCC3)c2)cnc1N)c1c(Cl)ccc(F)c1Cl" ?
100

What does the record list as cell viability for "NCCCNc1ccc(Nc2nccc(Nc3cc(C4CC4)[nH]n3)n2)cc1" ?
110

What does the record list as cell viability for "CCN1CCN(c2ccc(Nc3cc(N(C)C(=O)Nc4c(Cl)c(OC)cc(OC)c4Cl)ncn3)cc2)CC1" ?
106

What does the record list as cell viability for CN1CC[C@H](c2c(O)cc(O)c3c(=O)cc(-c4ccccc4Cl)oc23)[C@H](O)C1 [Flavopiridol (Alvocidib) hydrochloride] ?
100

What does the record list as cell viability for "COc1cc2ncnc(Oc3ccc(CC(=O)Nc4cnn(C(C)C)c4)cc3)c2cc1OC" ?
29.8

What does the record list as cell viability for "O=C(c1cccc(Cl)c1F)N1CCN(Cc2cccc(Nc3nccs3)n2)CC1" ?
115

What does the record list as cell viability for "NC(=O)Nc1cc(-c2ccc(CN3CCOCC3)cc2)sc1C(N)=O" ?
113

What does the record list as cell viability for N#CC(c1ccnc(OCc2ccc(CN3CCOCC3)cc2)n1)c1nc2ccccc2s1 (stereo unspecified) ?
109

What does the record list as cell viability for "C[C@H]1[C@H](C)CC[C@]2(C(=O)O)CC[C@]3(C)C(=CC[C@@H]4[C@@]5(C)C[C@@H](O)[C@H](O)[C@@](C)(CO)[C@@H]5CC[C@]43C)[C@H]12" ?
103

What does the record list as cell viability for "CN(N=O)C(=O)N[C@@H](C=O)[C@@H](O)[C@H](O)[C@H](O)CO" ?
108

What does the record list as cell viability for O=C(O)c1cc(O)c2c(c1)[C@@H]([C@H]1c3cc(C(=O)O)cc(O)c3C(=O)c3c(O[C@@H]4O[C@H](CO)[C@@H](O)[C@H](O)[C@H]4O)cccc31)c1cccc(O[C@@H]3O[C@H](CO)[C@@H](O)[C@H](O)[C@H]3O)c1C2=O [Sennoside B] ?
91.4

What does the record list as cell viability for "O=C(NCCO)c1cccc(-c2cc(Nc3ccc(OC(F)(F)F)cc3)ncn2)c1" ?
107

What does the record list as cell viability for "CN1CCN(c2ccc(C(=O)Nc3n[nH]c4ccc(Cc5cc(F)cc(F)c5)cc34)c(NC3CCOCC3)c2)CC1" ?
104

What does the record list as cell viability for "Nc1ncnc2n[nH]c(Nc3ccc(F)cc3)c12" ?
105

* * *

System: Mv4-11
Assay: cell viability relative to DMSO control (bortezomib = 0%); higher = less growth inhibition
Details: 10 nM; 72 h
I'd be grateful if you could share measured cell viability for these entries.
The answer is to be given in %; state only the numeric part.

What does the record list as cell viability for CCCN(CCC)C(=O)C(CCC(=O)O)NC(=O)c1ccccc1 (stereo not given) [Proglumide] ?
106

What does the record list as cell viability for "O=C(O)c1ccc2nc(-c3ccccc3)c(-c3ccccc3)nc2c1" ?
112

What does the record list as cell viability for "O=C1NC(=O)/C(=C/c2cccc(C(F)(F)F)c2)S1" ?
119

What does the record list as cell viability for "CCCS(=O)(=O)Nc1ccc(F)c(C(=O)c2c[nH]c3ncc(-c4ccc(Cl)cc4)cc23)c1F" ?
105

What does the record list as cell viability for "CC(=O)c1cnc2ccc(-c3cc(Cl)c(O)c(Cl)c3)nc2c1N[C@H]1CC[C@H](CN(C)C)CC1" ?
80.6

* * *

System: Mv4-11
Assay: cell viability relative to DMSO control (bortezomib = 0%); higher = less growth inhibition
Details: 10 nM; 72 h
Where a name gives a salt, the structure may show the parent alone.
I'd be grateful if you could share measured cell viability for these entries.
The answer is to be given in %; state only the numeric part.

# value lookup — system Mv4-11, readout cell viability, item CCCCNc1ncc(C(=O)NCc2ccc(-n3ccnc3)cc2)c(NC2CCC(O)CC2)n1 (stereo unspecified)
115

# value lookup — system Mv4-11, readout cell viability, item COC(=O)[C@]12CCC(C)(C)C[C@H]1[C@H]1C(=O)C=C3[C@@]4(C)C=C(C#N)C(=O)C(C)(C)[C@@H]4CC[C@@]3(C)[C@]1(C)CC2 [Bardoxolone Methyl]
104

# value lookup — system Mv4-11, readout cell viability, item "Oc1ccc(Nc2nc(-c3ccc(Cl)cc3)cs2)cc1"
105

# value lookup — system Mv4-11, readout cell viability, item "Nc1nccc(Oc2ccc(NC(=O)c3c[nH]cc(-c4ccc(F)cc4)c3=O)cc2F)c1Cl"
83.1

# value lookup — system Mv4-11, readout cell viability, item "O=C(O)CN1C(=O)c2c(I)c(I)c(I)c(I)c2C1=O"
107

# value lookup — system Mv4-11, readout cell viability, item O=S(=O)(NCCNC/C=C/c1ccc(Br)cc1)c1cccc2cnccc12 [H-89 (hydrochloride)]
109

# value lookup — system Mv4-11, readout cell viability, item "CC#CC(=O)Nc1ccc2ncnc(Nc3cccc(Br)c3)c2c1"
98.9

# value lookup — system Mv4-11, readout cell viability, item "CC(=O)Nc1cccc(-n2c(=O)n(C3CC3)c(=O)c3c(Nc4ccc(I)cc4F)n(C)c(=O)c(C)c32)c1"
107

# value lookup — system Mv4-11, readout cell viability, item "Cc1[nH]c(/C=C2\C(=O)Nc3ccc(S(=O)(=O)N(C)c4cccc(Cl)c4)cc32)c(C)c1C(=O)N1CCN(C)CC1"
107

# value lookup — system Mv4-11, readout cell viability, item "O=C(Nc1ccc2[nH]nc(-c3ccncc3)c2c1)[C@@H]1CCN(CC(=O)N2CCN(c3ccc(-c4ncccn4)cc3)CC2)C1"
95.8

# value lookup — system Mv4-11, readout cell viability, item "Cc1cc(Nc2cc(N3CCN(C)CC3)nc(/C=C/c3ccccc3)n2)n[nH]1"
105

# value lookup — system Mv4-11, readout cell viability, item N#CCNC(=O)c1ccc(-c2ccnc(Nc3ccc(N4CCOCC4)cc3)n2)cc1 [Momelotinib (CYT387)]
110

# value lookup — system Mv4-11, readout cell viability, item "COc1ccc(CNC(=O)Nc2ncc([N+](=O)[O-])s2)cc1"
114

# value lookup — system Mv4-11, readout cell viability, item Oc1ccc2c(c1)OCO2 [Sesamol]
114

# value lookup — system Mv4-11, readout cell viability, item "COc1ccc(C(=C2C(=O)Nc3ccccc32)c2ccc(OC)cc2)cc1"
103

# value lookup — system Mv4-11, readout cell viability, item "CC(C)(C)n1nc(Cc2cccc3ccccc23)c2c(N)ncnc21"
106

# value lookup — system Mv4-11, readout cell viability, item Cc1cc(Nc2ncc(Cl)c(Nc3ccccc3S(=O)(=O)C(C)C)n2)c(OC(C)C)cc1C1CCNCC1 [LDK378(Ceritinib)]
104

# value lookup — system Mv4-11, readout cell viability, item "N#CC(=C(/N)Sc1ccccc1N)/C(C#N)=C(/N)Sc1ccccc1N"
129

# value lookup — system Mv4-11, readout cell viability, item "CCOC(=O)c1c2c3c(cccc3[nH]c1=O)C(=O)c1ccccc1-2"
103

# value lookup — system Mv4-11, readout cell viability, item CN(C)C(=N)NC(=N)N [Metformin hydrochloride]
90.5

# value lookup — system Mv4-11, readout cell viability, item C=C1C[C@@]2(O)O[C@@]3(C[C@H]2C(C)C)[C@@H](C)CC[C@@H]13 [Curcumol]
97.2

# value lookup — system Mv4-11, readout cell viability, item "Brc1c(Br)c(Br)c2n[nH]nc2c1Br"
97.1

# value lookup — system Mv4-11, readout cell viability, item O=C1c2ccccc2C(=O)C1c1ccccc1 [Phenylindione]
114

# value lookup — system Mv4-11, readout cell viability, item "Cc1cc(CN2CCN(c3c(Br)cnc4nc(-c5ccc(N6CCN(C)CC6)cc5)[nH]c34)CC2)no1"
95.3

# value lookup — system Mv4-11, readout cell viability, item C=CC(=O)Nc1cc(Nc2nccc(-c3cn(C)c4ccccc34)n2)c(OC)cc1N(C)CCN(C)C [AZD-9291 mesylate]
94.8

# value lookup — system Mv4-11, readout cell viability, item COc1cc(Nc2c(C#N)cnc3cc(OCCCN4CCN(C)CC4)c(OC)cc23)c(Cl)cc1Cl [Bosutinib]
90.8

# value lookup — system Mv4-11, readout cell viability, item "COc1ncc(-c2ccc3nccc(-c4ccnnc4)c3c2)cc1NS(=O)(=O)c1ccc(F)cc1F"
76.1

# value lookup — system Mv4-11, readout cell viability, item C[C@H]1[C@H](C)CC[C@]2(C(=O)O)CC[C@]3(C)C(=CC[C@@H]4[C@@]5(C)C[C@@H](O)[C@H](O)C(C)(C)[C@@H]5CC[C@]43C)[C@H]12 [Corosolic acid]
106

# value lookup — system Mv4-11, readout cell viability, item "CCc1cc2c(=O)c(-c3nc4ccccc4s3)coc2c(CN2CCCCC2)c1O"
123

# value lookup — system Mv4-11, readout cell viability, item CN1C(=O)C(c2c[nH]c3ccccc23)=C(c2c[nH]c3ccccc23)C1=O [Bisindolylmaleimide V]
113

# value lookup — system Mv4-11, readout cell viability, item Nc1cccc(-c2nc(N3CCOCC3)c3oc4ncccc4c3n2)c1 [PIK-inhibitors]
103

# value lookup — system Mv4-11, readout cell viability, item "CN(C)Cc1cccc(N/C(=C2\C(=O)Nc3cc(C(N)=O)ccc32)c2ccccc2)c1"
134

# value lookup — system Mv4-11, readout cell viability, item N#Cc1ccc(COc2ccc(-c3cccc4nc(NC(=O)C5CC5)nn34)cc2)cn1 [GLPG0634 analogue]
119

# value lookup — system Mv4-11, readout cell viability, item "N#CC(=Cc1cc(Cl)cc(Cl)c1)c1cccnc1"
108

# value lookup — system Mv4-11, readout cell viability, item "CC(C)(C)c1nc(-c2cccc(NS(=O)(=O)c3c(F)cccc3F)c2F)c(-c2ccnc(N)n2)s1"
124

# value lookup — system Mv4-11, readout cell viability, item CNC(=O)c1c(C)oc2cc(Oc3ncnc4cc(OC)c(OC)cc34)ccc12 [Fruquintinib]
106
